# System: dpp promoter region
# Assay Details: Gel mobility shift assay of CodY binding to the dpp promoter region
# Test Parameters: read-out: Estimated KD (nM), +GTP, ILV; GTP (2 mM) and isoleucine, valine and leucine (10 mM each); CodY concentration that shifted 50% of the DNA
Reported Metric: Kd

Use these answered entries as a reference point.
Molecule	Reported Metric	Val
A207D (protein, UniProt P39779 2-259, looked up, variant A207D) Global transcriptional …: ALLQKTRIINSMLQAAAGKPVNFKEMAETLRDVIDSNIFVVSRRGKLLGYSINQQIENDRMKKMLEDRQFPEEYTKNLFNVPETSSNLDINSEYTAFPVENRDLFQAGLTTIVPIIGGGERLGTLILSRLQDQFNDDDLILAEYGATVVGMEILREKAEEIEEEARSKAVVQMAISSLSYSELEAIEHIFEELDGNEGLLVASKIDDRVGITRSVIVNALRKLESAGVIESRSLGMKGTYIKVLNNKFLIELENLKSH	Kd	> 500 nM
V218D (protein, UniProt P39779 2-259, looked up, variant V218D) Global transcriptional …: ALLQKTRIINSMLQAAAGKPVNFKEMAETLRDVIDSNIFVVSRRGKLLGYSINQQIENDRMKKMLEDRQFPEEYTKNLFNVPETSSNLDINSEYTAFPVENRDLFQAGLTTIVPIIGGGERLGTLILSRLQDQFNDDDLILAEYGATVVGMEILREKAEEIEEEARSKAVVQMAISSLSYSELEAIEHIFEELDGNEGLLVASKIADRVGITRSVIDNALRKLESAGVIESRSLGMKGTYIKVLNNKFLIELENLKSH	Kd	150 to 200 nM

The reported Kd of the molecule R214E (protein, UniProt P39779 2-259, looked up, variant R214E) Global transcriptional …: ALLQKTRIINSMLQAAAGKPVNFKEMAETLRDVIDSNIFVVSRRGKLLGYSINQQIENDRMKKMLEDRQFPEEYTKNLFNVPETSSNLDINSEYTAFPVENRDLFQAGLTTIVPIIGGGERLGTLILSRLQDQFNDDDLILAEYGATVVGMEILREKAEEIEEEARSKAVVQMAISSLSYSELEAIEHIFEELDGNEGLLVASKIADRVGITESVIVNALRKLESAGVIESRSLGMKGTYIKVLNNKFLIELENLKSH was > 500 nM

Hey, just so you know, these numbers are from patent US20070142318A1.
